Reference for the values: patent US20230348376A1

- target-desc: human VDR (Homo sapiens)
- Sequence (P11473 1-427): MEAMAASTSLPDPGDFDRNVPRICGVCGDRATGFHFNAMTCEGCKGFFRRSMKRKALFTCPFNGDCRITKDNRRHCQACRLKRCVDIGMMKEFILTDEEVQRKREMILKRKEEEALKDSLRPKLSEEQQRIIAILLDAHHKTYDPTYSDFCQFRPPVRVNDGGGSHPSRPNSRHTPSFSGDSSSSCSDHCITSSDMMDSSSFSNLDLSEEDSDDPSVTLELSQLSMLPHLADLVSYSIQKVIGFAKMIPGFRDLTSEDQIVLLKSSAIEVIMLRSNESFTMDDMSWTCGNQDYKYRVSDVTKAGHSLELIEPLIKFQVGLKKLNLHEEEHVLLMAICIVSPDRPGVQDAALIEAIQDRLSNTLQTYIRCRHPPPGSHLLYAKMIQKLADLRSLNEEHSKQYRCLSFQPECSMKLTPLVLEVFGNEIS
- Sequence (P19793 1-462 partner): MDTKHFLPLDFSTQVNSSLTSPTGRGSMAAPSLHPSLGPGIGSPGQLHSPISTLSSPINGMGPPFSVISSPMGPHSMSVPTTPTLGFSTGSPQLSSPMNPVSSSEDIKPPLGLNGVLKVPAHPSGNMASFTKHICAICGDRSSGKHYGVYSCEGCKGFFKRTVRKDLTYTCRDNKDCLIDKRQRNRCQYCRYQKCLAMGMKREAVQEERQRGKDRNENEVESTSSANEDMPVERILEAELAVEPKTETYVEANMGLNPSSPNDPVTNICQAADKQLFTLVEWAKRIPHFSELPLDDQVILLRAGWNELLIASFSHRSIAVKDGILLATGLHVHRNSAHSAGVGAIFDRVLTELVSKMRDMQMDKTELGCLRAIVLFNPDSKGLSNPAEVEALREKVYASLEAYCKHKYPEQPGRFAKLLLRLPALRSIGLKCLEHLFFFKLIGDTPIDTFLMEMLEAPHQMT
- test-description: Evaluation of VDR transcription activity in human osteoblasts (HOS cells), luciferase reporter
- experimental-setup: Activity (EC50, VDR transcription activity), HOS cells transfected with human VDR, human RXRα and DR3 luciferase reporter; 21 hours
The entries below are paired with their reported EC50.

compound	EC50
C=C1[C@H](O)CC(=C/C=C2\CCC[C@]3(C)[C@@H]([C@H](C)CN4CCC[C@@](C)(O)C4)CC[C@@H]23)C[C@H]1O	10 to 100 nM
C=C1[C@H](O)CC(=C/C=C2\CCC[C@]3(C)[C@@H]([C@H](C)CN4CC[C@H](OCC(F)F)C4)CC[C@@H]23)C[C@H]1O	1 to 10 nM
C=C1[C@H](O)CC(=C/C=C2\CCC[C@]3(C)[C@@H]([C@H](C)CN4CC(F)C4)CC[C@@H]23)C[C@H]1O	10 to 100 nM
C=C1[C@H](O)CC(=C/C=C2\CCC[C@]3(C)[C@@H]([C@@H](C)CN4CCC(CC(F)F)CC4)CC[C@@H]23)C[C@H]1O	10 to 100 nM
C=C1/C(=C\C=C2/CCC[C@]3(C)[C@@H]([C@H](C)CN4CC[C@H](CCC(F)F)C4)CC[C@@H]23)C[C@@H](O)C[C@@H]1O	100 to 1000 nM
C=C1[C@H](O)CC(=C/C=C2\CCC[C@]3(C)[C@@H]([C@H](C)CCN4CC[C@@H](CC(F)F)C4)CC[C@@H]23)C[C@H]1O	10 to 100 nM
C[C@H](CN1CC[C@H](C(F)F)C1)[C@H]1CC[C@H]2/C(=C/C=C3C[C@@H](O)C[C@H](O)C3)CCC[C@]12C	10 to 100 nM
C=C1[C@H](O)CC(=C/C=C2\CCC[C@]3(C)[C@@H]([C@H](C)CN4CCC(O)(C5CC5)C4)CC[C@@H]23)C[C@H]1O (some centres unmarked)	10 to 100 nM
C=C1[C@H](O)CC(=C/C=C2\CCC[C@]3(C)[C@@H]([C@H](C)CN4CCOC5(CC5)C4)CC[C@@H]23)C[C@H]1O	1 to 10 nM
C=C1/C(=C\C=C2/CCC[C@]3(C)[C@@H]([C@H](C)CN4CCOC(C(F)(F)F)C4)CC[C@@H]23)C[C@@H](O)[C@H](C)[C@@H]1O (single isomer, unassigned) [Compound D009b]	10 to 100 nM
C[C@H](CN1CCC(O)(C(F)(F)F)C1)[C@H]1CC[C@H]2/C(=C/C=C3C[C@@H](O)C[C@H](O)C3)CCC[C@]12C (single isomer, unassigned) [Compound B045a]	< 1 nM
